Examples of compounds with documented pIC50 follow.
- Test system: renal carcinoma cells (786-O)
- test.method.notes: In vitro potency (CellTiter-Glo, 96 h) on 786-O
- Assay type: cell-based
- condition.description: Homo sapiens, 786-0, 96 h, read-out: 786-O IC50
The value called pIC50 is obtained by taking minus log10 of the concentration in mol/L.

Below, 5 compounds whose answers are already recorded.
CC[C@@]1(O)C(=O)OCc2c1cc1n(c2=O)Cc2c-1nc1cc(F)c(C)c(C#N)c1c2CN; 8.10
CC[C@@]1(O)C(=O)OCc2c1cc1n(c2=O)Cc2c-1nc1cc3c(cc1c2Cn1cnc(CO)c1)OCO3; 7.00
CC[C@@]1(O)C(=O)OCc2c1cc1n(c2=O)Cc2c-1nc1cc3c(cc1c2CNC(C)=O)CCO3; 7.89
CC[C@@]1(O)C(=O)OCc2c1cc1n(c2=O)Cc2c-1nc1cc3c(cc1c2CNCCCN1CCN(C)CC1)OCO3; 7.36
CC[C@@]1(O)C(=O)OCc2c1cc1n(c2=O)Cc2c-1nc1cc3c(cc1c2CNC(=O)CN)CCO3; 6.86

State its pIC50: CC[C@@]1(O)C(=O)OCc2c1cc1n(c2=O)Cc2c-1nc1cc3c(cc1c2CN1CCC(N)CC1)OCO3
6.57

State its pIC50: CC[C@@]1(O)C(=O)OCc2c1cc1n(c2=O)Cc2c-1nc1cc3c(cc1c2CNCCCNC)OCO3
7.96
